Taken from patent US20100172907A1.

target: T1, BSA-conjugated Aβ heptapeptide FFAEDVC (C-terminal Cys coupled to NSMP-activated BSA); assay: ELISA;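 further: ELISA of antibody at 10 or 2 µg/ml binding plate-coated BSA–peptide conjugates, detected with HRP anti-human Ig and TMB colour, mock-treated BSA without peptide as negative control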
T1 construct: also called Peptide 19-24
T1 peptide: FFAEDVC
PARAMETER: OD ratio 19-24/BSA

BINDER | OD ratio 19-24/BSA
MS-Roche #7.2.H5 Fab (Fab, V domains shown) VH: QVQLVESGGGLVQPGGSLRLSCAASGFTFSSYAMSWVRQAPGKGLEWVSAINATGRSKYYADSVKGRFTISRDNSKNTLYLQMNSLRAEDTAVYYCARGKGNTHKPYGYVRYFDVWGQGTLVTVSS VL: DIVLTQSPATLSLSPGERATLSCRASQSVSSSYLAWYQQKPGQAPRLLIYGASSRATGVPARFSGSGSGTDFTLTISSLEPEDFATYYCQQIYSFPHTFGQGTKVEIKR | 15
MS-Roche #7.11.H2 Fab (Fab, V domains shown) VH: QVQLVESGGGLVQPGGSLRLSCAASGFTFSSYAMSWVRQAPGKGLEWVSAINANGYKKYYADSVKGRFTISRDNSKNTLYLQMNSLRAEDTAVYYCARGKGNTHKPYGYVRYFDVWGQGTLVTVSS VL: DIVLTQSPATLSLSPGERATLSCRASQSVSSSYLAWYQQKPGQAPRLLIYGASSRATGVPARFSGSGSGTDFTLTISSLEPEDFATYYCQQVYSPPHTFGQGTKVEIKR | 14

Task: Entry MS-Roche #7.9.H3 Fab (Fab, V domains shown, assembled) VH: QVQLVESGGGLVQPGGSLRLSCAASGFTFSSYAMSWVRQAPGKGLEWVSAINYQGNRKYYADSVKGRFTISRDNSKNTLYLQMNSLRAEDTAVYYCARGKGNTHKPYGYVRYFDVWGQGTLVTVSS VL: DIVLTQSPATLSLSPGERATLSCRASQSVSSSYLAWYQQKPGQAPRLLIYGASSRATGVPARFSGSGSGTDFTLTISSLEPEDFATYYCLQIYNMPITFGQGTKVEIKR has what OD ratio 19-24/BSA?
Output: 9

Task: Okay, and MS-Roche #7.9.H4 Fab (Fab, V domains shown, assembled) VH: QVQLVESGGGLVQPGGSLRLSCAASGFTFSSYAMSWVRQAPGKGLEWVSAINAVGMKKFYADSVKGRFTISRDNSKNTLYLQMNSLRAEDTAVYYCARGKGNTHKPYGYVRYFDVWGQGTLVTVSS VL: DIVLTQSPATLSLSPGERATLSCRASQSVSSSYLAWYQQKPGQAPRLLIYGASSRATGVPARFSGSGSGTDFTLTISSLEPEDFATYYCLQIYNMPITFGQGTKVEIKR ?
Output: 7

Task: How about MS-Roche #7.2.H2 Fab (Fab, V domains shown) VH: QVQLVESGGGLVQPGGSLRLSCAASGFTFSSYAMSWVRQAPGKGLEWVSAINGTGMKKYYADSVKGRFTISRDNSKNTLYLQMNSLRAEDTAVYYCARGKGNTHKPYGYVRYFDVWGQGTLVTVSS VL: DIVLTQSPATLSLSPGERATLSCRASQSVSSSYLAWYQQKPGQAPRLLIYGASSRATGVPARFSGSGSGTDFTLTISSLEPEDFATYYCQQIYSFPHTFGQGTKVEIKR ?
Output: 10

Task: Same question for MS-Roche #7.2.H4 Fab (Fab, V domains shown) VH: QVQLVESGGGLVQPGGSLRLSCAASGFTFSSYAMSWVRQAPGKGLEWVSAINSKGSRIYYADSVKGRFTISRDNSKNTLYLQMNSLRAEDTAVYYCARGKGNTHKPYGYVRYFDVWGQGTLVTVSS VL: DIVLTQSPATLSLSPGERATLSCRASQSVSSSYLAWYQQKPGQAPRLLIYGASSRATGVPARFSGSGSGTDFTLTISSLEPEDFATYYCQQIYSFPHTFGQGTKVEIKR please.
Output: 12

Task: // same read-out, input: MS-Roche #7.11.H1 Fab (Fab, V domains shown) VH: QVQLVESGGGLVQPGGSLRLSCAASGFTFSSYAMSWVRQAPGKGLEWVSGINAAGFRTYYADSVKGRFTISRDNSKNTLYLQMNSLRAEDTAVYYCARGKGNTHKPYGYVRYFDVWGQGTLVTVSS VL: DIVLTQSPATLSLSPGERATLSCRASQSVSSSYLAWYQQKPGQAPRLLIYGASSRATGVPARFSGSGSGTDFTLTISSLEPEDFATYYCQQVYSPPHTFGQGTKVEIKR
Output: 8

Task: Queued: MS-Roche #7.9.H1 Fab (Fab, V domains shown, assembled) VH: QVQLVESGGGLVQPGGSLRLSCAASGFTFSSYAMSWVRQAPGKGLEWVSAINANGQRKFYADSVKGRFTISRDNSKNTLYLQMNSLRAEDTAVYYCARGKGNTHKPYGYVRYFDVWGQGTLVTVSS VL: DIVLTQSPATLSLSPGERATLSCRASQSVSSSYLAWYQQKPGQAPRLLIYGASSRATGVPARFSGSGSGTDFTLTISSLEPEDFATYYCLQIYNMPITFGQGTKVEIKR
Output: 6

Task: Moving on to MS-Roche #7.2.H3 Fab (Fab, V domains shown) VH: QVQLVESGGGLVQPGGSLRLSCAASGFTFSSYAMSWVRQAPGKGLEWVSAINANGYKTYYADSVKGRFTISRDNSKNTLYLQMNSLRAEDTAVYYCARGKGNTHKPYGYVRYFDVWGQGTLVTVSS VL: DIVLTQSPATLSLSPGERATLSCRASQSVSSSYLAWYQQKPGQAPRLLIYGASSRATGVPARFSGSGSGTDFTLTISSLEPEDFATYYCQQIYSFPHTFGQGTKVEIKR
Output: 18

Task: Next binder: MS-Roche #7.12 Fab (Fab, V domains shown) VH: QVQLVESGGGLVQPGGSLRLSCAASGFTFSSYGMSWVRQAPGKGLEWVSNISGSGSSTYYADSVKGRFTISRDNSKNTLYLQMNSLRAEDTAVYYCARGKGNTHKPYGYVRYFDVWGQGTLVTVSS VL: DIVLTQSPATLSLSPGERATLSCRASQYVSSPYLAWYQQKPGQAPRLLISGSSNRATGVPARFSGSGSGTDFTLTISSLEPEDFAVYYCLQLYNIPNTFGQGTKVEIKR
Output: 7
